ASSAY_OVERVIEW: Tested for activity against 5-hydroxytryptamine 1A receptor from bovine hippocampus
Rule: Ki below 30 nM gives 1. Equal to or above 30 nM gives 0.

SMILES_REPRESENTATION	QUALITATIVE_LABEL
CCCN1CC[C@@H]2c3ccccc3CC[C@H]21	0
C=CCN1CC[C@@H]2c3ccccc3CC[C@H]21	1
C=CCN1CC[C@H]2c3ccccc3CC[C@H]21	0
C=CCN1C[C@H]2c3c(cccc3OC)CC[C@H]21	1
COc1cccc2c1CC[C@@H]1[C@@H]2CCN1CC1CC1	0

Ask: Ki strictly < 30 nM for this compound? C=CCN1C[C@H]2c3c(O)cccc3CC[C@H]21
Reply: 1

Ask: Same thing, different compound: CCCN1CC[C@H]2c3ccccc3CC[C@H]21
Reply: 0

Ask: Same thing, different compound: CCCN1CC[C@H]2c3c(cccc3OC)CC[C@H]21
Reply: 0

Ask: Same thing, different compound: COc1cccc2c1C[C@H]1CCN[C@@H]1C2
Reply: 1

Ask: Same thing, different compound: COc1cccc2c1C[C@H]1CCN(CC3CC3)[C@H]1C2
Reply: 0

Ask: Same thing, different compound: COc1cccc2c1C[C@H]1CCN(CC3CC3)[C@@H]1C2
Reply: 1

Ask: Same thing, different compound: COc1cccc2c1C[C@H]1CCN(Cc3ccccc3)[C@@H]1C2
Reply: 0
